Record form. Attribute: Ki. Fill in for each entry.
Target: Human α4β2 (Homo sapiens, UniProt P17787+P43681)
Construct: expressed in transfected cells; obtained from Dr. Ron Lukas, Barrow Neurological Institute
Experiment: Competition binding to receptors in membrane preparations, human α4β2 ([3H]-nicotine)
Details: read-out: Human α4β2 Ki
Number only, in nM; omit the unit.

*Q* Recall the recorded Ki for CN[C@@H](C)C/C=C/c1cncc(OC2CN(C(=O)c3ccco3)C2)c1 with Human α4β2 (Homo sapiens, UniProt P17787+P43681) and state it.
*A* 2.8

*Q* // map CN[C@@H](C)C/C=C/c1cncc(O[C@H]2CCN(C(=O)c3ccco3)C2)c1 to recorded Ki (system: Human α4β2 (Homo sapiens, UniProt P17787+P43681))
*A* 1.2

*Q* Missing value: Ki, Human α4β2 (Homo sapiens, UniProt P17787+P43681), entry CN[C@@H](C)C/C=C/c1cncc(O[C@@H]2CCN(C(=O)CC3CCCC3)C2)c1 . Fill in?
*A* 11

*Q* Give recorded Ki with Human α4β2 (Homo sapiens, UniProt P17787+P43681) for the following compound: CN[C@@H](C)C/C=C/c1cncc(O[C@H]2CCN(C(=O)C3CCCC3)C2)c1
*A* 7.8

*Q* Provide value of Ki for this record tested with Human α4β2 (Homo sapiens, UniProt P17787+P43681): CN[C@@H](C)C/C=C/c1cncc(O[C@@H]2CCN(C(=O)c3ccc(F)cc3)C2)c1
*A* 6.7

*Q* What reported Ki corresponds to CN[C@@H](C)C/C=C/c1cnc(Cl)c(O[C@H]2CCN(C(=O)c3ccc(F)cc3F)C2)c1 on Human α4β2 (Homo sapiens, UniProt P17787+P43681)?
*A* 22

*Q* Notebook: pull reported Ki for Human α4β2 (Homo sapiens, UniProt P17787+P43681), entry CN[C@@H](C)C/C=C/c1cnc(Cl)c(O[C@H]2CCN(C(=O)c3ccc(F)cc3)C2)c1
*A* 1.5

*Q* Reported Ki for Human α4β2 (Homo sapiens, UniProt P17787+P43681), given CN[C@@H](C)C/C=C/c1cncc(O[C@H]2CCN(C(=O)C3CCC3)C2)c1 ?
*A* 18

*Q* Find the measured Ki: item CN[C@@H](C)C/C=C/c1cncc(O[C@@H]2CCN(C(=O)c3ccco3)C2)c1 , target or system Human α4β2 (Homo sapiens, UniProt P17787+P43681).
*A* 4.7
